Attribution: PubChem BioAssay (NCI)

Reported values of growth for individual entries
Test system: HCT-116 colon
Test: NCI-60 one-dose screen, 48 h (100 = growth as untreated, 0 = no growth, -100 = all killed)
Conditions: 10 µM unless noted
Method: Growth inhibition of the HCT-116 human tumor cell line is measured as a screen for anti-cancer activity. Cells are grown in 96 well plates and exposed to the test compound for 48 hours. Compounds are tested at a single concentration, which is 10^-5 M for most compounds. The reported endpoint is percent growth (GI% or GIPRCNT), where numbers from 0 - 100% represent growth inhibition, and numbers from -100% - 0 represent cell death. For example, a value of 40 represents 60% growth inhibition. […]
This is part of a sample that, as a whole, favours compounds with a hit. Of some 83,000 tested, about 20% had one in any assay. Activity calls are given as the source filed them. The calls were made as follows: active = growth percent below 10; inactive = the rest.

Take a look at these entries with their results.
1) c1cc[n+](Cc2c3ccccc3cc3c2ccc2ccccc23)cc1: 58.1% (inactive)
2) COc1cc(Nc2ncc(F)c(Nc3ccc4c(n3)NC(=O)C(C)(C)O4)n2)cc(OC)c1OC: 59.3% (inactive)

Please look at the following compound next.
For record Cn1cnc(-c2cc3nccc(Oc4ccc(NC(=S)NC(=O)Cc5ccccc5)cc4F)c3s2)c1 the listed growth is 78.8% (inactive)
